Tested on: ECV-304
METHOD NOTES: Protection against H2O2-induced toxicity in human ECV304 cells assessed as proliferation rate at 25 uM pretreated for 24 hrs before H2O2 challenge measured after 12 hrs by MTT assay
Assay type: functional
CONDITION PARAMETERS: read-out: Activity
Kindly note that classification relies on growth at 25 µM with these boundaries: low end (below -80%), middle (-80% to below 10%), high end (10% or more)

Answered examples (5):
Inquiry: Which band does CCOC(=O)/C=C/c1cccc(OC)c1OCc1nc(C)c(C)nc1C fall in?
Reply text: high end

Inquiry: How about this compound: COc1cc(/C=C/C(=O)O)ccc1OCc1nc(C)c(C)nc1C
Reply text: middle

Inquiry: How about this compound: CCOC(=O)/C=C/c1ccccc1OCc1nc(C)c(C)nc1C
Reply text: low end

Inquiry: How about this compound: CCOC(=O)/C=C/c1cc(Br)cc(Br)c1OCc1nc(C)c(C)nc1C
Reply text: middle

Inquiry: How about this compound: Cc1nc(C)c(C)nc1C [LIGUSTRAZINE]
Reply text: high end

---
Inquiry: Which band does Cc1nc(C)c(COc2ccc(/C=C/C(=O)O)cc2O)nc1C fall in?
Reply text: high end

Inquiry: How about this compound: Cc1nc(C)c(COc2c(Br)cc(/C=C/C(=O)O)cc2Br)nc1C
Reply text: low end

Inquiry: How about this compound: CCOC(=O)/C=C/c1ccc(OCc2nc(C)c(C)nc2C)c(OC)c1
Reply text: high end

Inquiry: How about this compound: CCOC(=O)/C=C/c1ccc(OCc2nc(C)c(C)nc2C)c(O)c1
Reply text: middle

Inquiry: How about this compound: CCOC(=O)/C=C/c1cc(Cl)ccc1OCc1nc(C)c(C)nc1C
Reply text: low end

Data provenance is ChEMBL document CHEMBL1909548.
